System name: Estrogen receptor of uterus of mice (Mus musculus, UniProt P19785)
Construct: the uterus were removed and homogenized at 0° C; from tissue; host or cells: mouse uterus, 105,000 g supernatant (immature females 18 to 21 days old)
Sequence (P19785 1-599): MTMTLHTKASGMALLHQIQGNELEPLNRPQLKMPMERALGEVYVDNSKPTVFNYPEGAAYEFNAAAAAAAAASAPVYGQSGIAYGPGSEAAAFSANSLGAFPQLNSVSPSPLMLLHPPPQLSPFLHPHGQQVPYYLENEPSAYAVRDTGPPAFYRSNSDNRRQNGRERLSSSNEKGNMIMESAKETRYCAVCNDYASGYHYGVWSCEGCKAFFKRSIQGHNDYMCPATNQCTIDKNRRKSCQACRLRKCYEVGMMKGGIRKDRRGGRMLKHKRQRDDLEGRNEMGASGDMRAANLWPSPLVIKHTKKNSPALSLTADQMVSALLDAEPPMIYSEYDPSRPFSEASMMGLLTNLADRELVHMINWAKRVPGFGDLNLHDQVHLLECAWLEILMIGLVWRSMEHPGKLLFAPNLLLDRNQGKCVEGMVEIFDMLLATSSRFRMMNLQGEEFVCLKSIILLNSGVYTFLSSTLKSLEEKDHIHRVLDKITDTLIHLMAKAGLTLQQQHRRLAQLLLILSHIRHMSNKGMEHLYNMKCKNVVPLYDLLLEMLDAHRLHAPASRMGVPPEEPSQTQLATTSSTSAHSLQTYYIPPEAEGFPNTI
Assay explanation: Estrogen receptor binding (displacement of tritiated estradiol)
Test conditions: incubation 5 H (25° C.)
Measured quantity: relative affinity of tieing (ARL), Estrogen

Query: Value lookup for relative affinity of tieing (ARL), Estrogen; key = CN(C)CCOc1ccc2c(c1)CC[C@@H]1[C@@H]2[C@@H](c2ccccc2)C[C@]2(C)[C@@H](O)CC[C@@H]12
Reply: 0,1

Query: # get_value(readout='relative affinity of tieing (ARL), Estrogen', item= CN(C)CCOc1ccc([C@H]2C[C@]3(C)[C@@H](O)CC[C@H]3[C@@H]3CCc4ccccc4[C@H]32)cc1 )
Reply: 1,4

Query: Record request: relative affinity of tieing (ARL), Estrogen value, item CC#C[C@]1(O)CC[C@H]2[C@@H]3CCC4=CC(=O)[C@@H](C)CC4=C3[C@@H](c3ccc(N(C)C)cc3)C[C@@]21C
Reply: < 0,1

* * *

System name: Gluocorticoid receptor of thymus of rats (Rattus norvegicus, UniProt P06536)
Construct: The thymus were removed and homogenized at 0° C; from tissue; host or cells: rat thymus, 105,000 g supernatant (adrenalectomized male Sprague-Dawley rats)
Sequence (P06536 1-795): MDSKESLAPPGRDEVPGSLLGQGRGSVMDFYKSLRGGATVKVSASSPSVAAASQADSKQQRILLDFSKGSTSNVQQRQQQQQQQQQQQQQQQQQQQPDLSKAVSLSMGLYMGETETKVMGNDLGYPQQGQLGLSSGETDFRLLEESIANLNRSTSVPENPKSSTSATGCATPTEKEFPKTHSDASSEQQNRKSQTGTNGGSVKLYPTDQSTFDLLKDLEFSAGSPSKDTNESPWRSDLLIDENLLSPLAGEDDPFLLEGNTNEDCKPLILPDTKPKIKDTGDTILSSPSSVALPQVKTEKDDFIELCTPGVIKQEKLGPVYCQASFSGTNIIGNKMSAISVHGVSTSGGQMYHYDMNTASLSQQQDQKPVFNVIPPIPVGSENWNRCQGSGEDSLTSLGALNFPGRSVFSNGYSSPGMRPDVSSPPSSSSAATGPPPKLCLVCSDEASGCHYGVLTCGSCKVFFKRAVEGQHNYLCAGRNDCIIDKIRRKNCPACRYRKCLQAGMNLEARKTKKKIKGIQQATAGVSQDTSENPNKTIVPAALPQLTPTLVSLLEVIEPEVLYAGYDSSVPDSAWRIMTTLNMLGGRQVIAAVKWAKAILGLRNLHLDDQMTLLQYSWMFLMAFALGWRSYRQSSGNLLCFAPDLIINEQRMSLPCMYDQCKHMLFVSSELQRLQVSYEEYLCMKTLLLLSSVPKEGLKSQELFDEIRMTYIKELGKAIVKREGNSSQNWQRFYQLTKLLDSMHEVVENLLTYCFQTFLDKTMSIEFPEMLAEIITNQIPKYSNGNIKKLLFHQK
Assay explanation: Glucocorticoid receptor binding (displacement of tritiated dexamethasone)
Test conditions: incubation 4 H at 0° C.
Measured quantity: relative affinity of tieing (ARL), Glucocorticoid

Query: I would be grateful if you could share the reported relative affinity of tieing (ARL), Glucocorticoid for CN(C)CCOc1ccc([C@H]2C[C@]3(C)[C@@H](O)CC[C@H]3[C@@H]3CCc4ccccc4[C@H]32)cc1 .
Reply: 0,4

Query: I'd like to know its relative affinity of tieing (ARL), Glucocorticoid. The molecule in question is CN(C)CCOc1ccc([C@H]2C[C@]3(C)[C@@H](O)CC[C@H]3[C@@H]3CCc4cc(O)ccc4[C@H]32)cc1
Reply: 3,9

Query: Give the measured relative affinity of tieing (ARL), Glucocorticoid of CC#C[C@]1(OC(C)=O)CC[C@H]2[C@@H]3CCc4cc(O)ccc4[C@H]3[C@@H](c3ccc(N(C)C)cc3)C[C@@]21C .
Reply: 58
